target: T1, human vascular endothelial growth factor receptor-2 Fc chimera (KDR-Fc) (human, UniProt P35968 20-764); experiment: BIAcore, KDR-Fc immobilised on CM5 chip
T1 construct: range 1-764; also called human VEGF-R2-Fc; not shown: human IgG1 Fc
T1 sequence (P35968 20-764 limits assumed, change not shown, form in doubt): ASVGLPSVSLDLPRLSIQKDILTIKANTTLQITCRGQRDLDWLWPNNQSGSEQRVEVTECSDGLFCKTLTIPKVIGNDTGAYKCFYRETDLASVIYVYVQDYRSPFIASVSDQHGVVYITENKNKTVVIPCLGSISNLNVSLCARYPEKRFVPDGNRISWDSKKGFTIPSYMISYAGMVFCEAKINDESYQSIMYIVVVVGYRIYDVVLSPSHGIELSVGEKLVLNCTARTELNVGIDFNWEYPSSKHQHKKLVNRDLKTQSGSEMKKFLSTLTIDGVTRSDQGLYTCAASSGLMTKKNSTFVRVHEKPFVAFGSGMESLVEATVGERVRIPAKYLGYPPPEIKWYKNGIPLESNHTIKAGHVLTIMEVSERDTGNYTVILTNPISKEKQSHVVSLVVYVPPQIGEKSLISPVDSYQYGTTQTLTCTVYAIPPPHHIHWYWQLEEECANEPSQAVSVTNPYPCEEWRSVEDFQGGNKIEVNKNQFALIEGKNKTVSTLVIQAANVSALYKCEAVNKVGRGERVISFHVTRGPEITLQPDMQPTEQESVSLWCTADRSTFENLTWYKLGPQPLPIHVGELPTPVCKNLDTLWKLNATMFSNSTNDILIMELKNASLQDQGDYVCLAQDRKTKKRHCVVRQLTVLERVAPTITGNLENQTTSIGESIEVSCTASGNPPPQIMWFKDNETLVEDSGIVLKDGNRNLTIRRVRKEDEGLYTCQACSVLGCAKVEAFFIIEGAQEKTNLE
Endpoint Label: koff

| Binder | Observed Measurement |
| --- | --- |
| E6, E. coli-expressed, His6 (designed binder, soluble E. coli form; N-terminal residues added for expression not described) EVVAATPTSLLISWRHPHFPTRYYRITYGETGGNSPVQEFTVPLQPPTATISGLKPGVDYTITGYAVTDGWNGRLLSIPISINYRTEIDKPSQHHHHHH | 6.7e-05 s⁻¹ |
| E18, E. coli-expressed, His6 (designed binder, soluble E. coli form; N-terminal residues added for expression not described) EVVAATPTSLLISWRHPHFPTRYYRITYGETGGNSPVQEFTVPLQPPTATISGLKPGVDYTITGYAVTVERNGRELNTPISINYRTEIDKPSQHHHHHH | 0.000121 s⁻¹ |
| M5FL, E. coli-expressed, His6 (designed binder, soluble E. coli form with Ser100) VSDVPRDLEVVAATPTSLLISWRHPHFPTRYYRITYGETGGNSPVQEFTVPLQPPLATISGLKPGVDYTITVYAVTKERNGRELFTPISINYRTEIDKPSQHHHHHH | 9.2e-05 s⁻¹ |
| VR28, E. coli-expressed, His6 (designed binder, soluble E. coli form; N-terminal Met not described) VSDVPRDLEVVAATPTSLLISWRHPHFPTRYYRITYGETGGNSPVQEFTVPLQPPTATISGLKPGVDYTITGYAVTVAQNDHELITPISINYRTEIDKPSQHHHHHH | 0.00034 s⁻¹ |
